Where do these numbers come from? They come from ChEMBL document CHEMBL5665443.

List of inhibition values.
Target: Endonuclease 8-like 1 (Homo sapiens) (UniProt Q96FI4);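 note: fluorescence at 594 nm from quenched duplex DNA oligonucleotides released by NEIL1 cleavage and strand separation, reported as reduction of this enzyme activity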
Sequence (Q96FI4 whole entry): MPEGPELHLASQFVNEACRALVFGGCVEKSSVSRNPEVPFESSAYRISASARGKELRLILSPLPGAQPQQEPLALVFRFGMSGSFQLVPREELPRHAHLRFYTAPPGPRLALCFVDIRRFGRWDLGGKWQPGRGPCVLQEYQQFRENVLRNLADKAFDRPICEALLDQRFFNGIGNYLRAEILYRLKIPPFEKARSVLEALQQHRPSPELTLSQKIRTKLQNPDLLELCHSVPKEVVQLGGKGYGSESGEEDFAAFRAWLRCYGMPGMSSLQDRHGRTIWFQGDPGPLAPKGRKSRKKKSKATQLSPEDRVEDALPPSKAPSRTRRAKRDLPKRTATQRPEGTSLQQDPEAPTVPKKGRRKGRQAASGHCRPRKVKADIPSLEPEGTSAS
Details: Compound Concentration 10.0 uM, Hit No
Description: Inhibition of NEIL1 by quantifying inhibition of NEIL1-mediated cleavage and dissociation of quenched duplex DNA oligonucleotides, measured as fluorescence at 594 nm.

compound | unit abbreviation | inhibition
CC(=O)[C@H]1CC[C@H]2[C@@H]3CC[C@H]4C[C@H](O)CC[C@]4(C)[C@H]3CC[C@]12C | % | 9.05
O=c1ccn([C@@H]2O[C@H](COP(=O)(O)OP(=O)(O)OP(=O)(O)O)[C@@H](O)[C@H]2O)c(=O)[nH]1 | % | -1.39
O=c1cccc2n1C[C@@H]1CNC[C@H]2C1 | % | -1.18
CC[C@H](C)C(=O)O[C@H]1C[C@@H](C)C=C2C=C[C@H](C)[C@H](CC[C@@H]3C[C@@H](O)CC(=O)O3)[C@H]21 | % | -4.68
COc1cc(Nc2ccnc3ccc(Br)cc23)cc(OC)c1OC | % | 10
CCC[C@H]1CNCc2c1[nH]c(=O)c(C#N)c2N1CCC2(CC1)CC2 | % | 9.71
Cc1c(CC(=O)O)c2cccnc2n1Cc1ccc(S(C)(=O)=O)cc1C(F)(F)F | % | 0.834
Cc1ccccc1Oc1cc(-n2c(=O)cc(C(F)(F)F)[nH]c2=O)c2ccccc2c1Cl | % | 7.74
COc1ccccc1/C=N/NC(=O)COc1ccc(Cl)cc1C | % | 8.6
Cc1cc(Cn2cnc3c2C[C@@H](C(=O)O)N(C(=O)C(c2ccccc2)c2ccccc2)C3)ccc1N(C)C | % | 10.3
CN(C)CCN(Cc1ccc(-c2ccc(CNCCc3ccccc3)cc2)cc1)C(=O)CCC1CCCC1 | % | 4.6
C[N+]1(C)[C@@H]2C[C@@H](OC(=O)C(O)(c3cccs3)c3cccs3)C[C@H]1[C@@H]1O[C@@H]12 | % | 8.84
CCc1cc2c(c(CC)n1)CCC(=O)N2Cc1ccc(-c2ccccc2-c2nnn[nH]2)cc1 | % | 13.9
FC(F)(F)c1ccc(N2CCNCC2)nc1Cl | % | -3.1
O=C(O)c1ccnc(N2CC(O)(c3ccc(OCc4c(-c5c(Cl)cccc5Cl)noc4C4CC4)cc3Cl)C2)c1 | % | -4.99
CCOc1cc(N2CCC(O)CC2)ccc1Nc1ncc2c(n1)N(C1CCCC1)CCC(=O)N2C | % | -5.28
O=C(NNS(=O)(=O)c1ccccc1F)c1cc(F)cc(-c2ccccn2)c1 | % | 0.316
COc1ccc(-c2csc(NC(=O)[C@H]3CCCCN3S(=O)(=O)c3ccc(C)cc3)n2)cc1 | % | 4.6
CCCCC1=NC2(CCCC2)C(=O)N1Cc1ccc(-c2ccccc2-c2nnn[nH]2)cc1 | % | 0.241
CC1=C(C(=O)Nc2cc3cn[nH]c3cc2F)C(c2ccc(C(F)(F)F)cc2)CC(=O)N1 (centres undefined) | % | 4.1
Cc1cc(C(=O)N2CCN(C3CN(C(=O)c4ccc(-c5ccccc5)cc4)C3)CC2)no1 | % | -3.92
Cc1c(C(=O)NN2CCCCC2)nn(-c2ccc(Cl)cc2Cl)c1-c1ccc(Cl)cc1 | % | -1.09
CCOP(=O)(OCC)C(=Cc1cc(C(C)(C)C)c(O)c(C(C)(C)C)c1)P(=O)(OCC)OCC | % | -3.17
CC(C)(C)c1cc(C(C)(C)C)c(NC(=O)c2c[nH]c3ccccc3c2=O)cc1O | % | 1.34
COc1ccc(CCN(C)CCCC(C#N)(c2cc(OC)c(OC)c(OC)c2)C(C)C)cc1OC (centres undefined) | % | 5.05
COc1ccc(-c2ccc3cc(C(=O)O)ccc3c2)cc1C12CC3CC(CC(C3)C1)C2 | % | -5.14
Cc1nn(C)c(C)c1-c1cccc2c1CC[C@H](N(C)C)C2 | % | 1.87
CSc1ccc(C(=O)/C=C/c2cc(C)c(OC(C)(C)C(=O)O)c(C)c2)cc1 | % | 0.467
CCn1cc(-c2ccnc3[nH]c(-c4cccc(CN(C)C)c4)cc23)c(-c2ccc(NC(=O)N(C)C)cc2)n1 | % | -6.47
CCCCCNC(=O)N1CCC(CN(Cc2ccc(Cl)cc2)Cc2ccc([N+](=O)[O-])s2)C1 (centres undefined) | % | -3.17
OCCN1CCN(CCCN2c3ccccc3Sc3ccc(Cl)cc32)CC1 | % | 17.1
Cc1[nH]cnc1CN1CCc2c(c3ccccc3n2C)C1=O | % | 11.2
C[C@H](NC(=O)c1c(C(F)F)nn(C)c1Oc1cccc(C(F)(F)F)c1)c1ccc(C(=O)O)cc1 | % | -3.02
COCCc1ccc(-c2c(C)nc3c(N4CCOCC4)ccnn23)cn1 | % | -9.68
Cc1nc(C#Cc2cccnc2)cs1 | % | 1.49
COc1ccccc1N1CCN(C[C@@H](C(=O)NC(C)(C)C)c2ccccc2)CC1 | % | 15.4
O=C(NCc1ccc(F)cc1)N1CCN2C(=O)OC(c3ccccc3)(c3ccccc3)C2C1 (centres undefined) | % | -1.09
CCCCC[C@H](O)/C=C/[C@H]1[C@H](O)CC(=O)[C@@H]1CCCCCCC(=O)O | % | 4.31
Oc1cc2c(cc1O)CN(C(=S)NCCc1ccc(Cl)cc1)CCC2 | % | 12.2
